measurementNotes: in vivo
details: BALB/c, mouse, iv, 3 mg/kg
recordedEndpoint: clearance at 24 h (mL/min/kg)
Give your result in mL/min/kg as a bare value.

Ask: Any idea what its clearance at 24 h is? The compound is CCN1CCN(Cc2ccc(Nc3ncc(F)c(-c4cc(F)c5nc(C)n(C(C)C)c5c4)n3)nc2)CC1 [ABEMACICLIB]
Result: 60

----------
measurementNotes: in vitro
details: human, microsomes
recordedEndpoint: half-life at 1 h
Write the quantity with the unit trailing the number.

Ask: Bench note: what half-life at 1 h did CCN1CCN(Cc2ccc(Nc3ncc(F)c(-c4cc(F)c5nc(C)n(C(C)C)c5c4)n3)nc2)CC1 show?
Result: 8.15 min

----------
Listing of recorded IC50 by entry.
System: A549
measurementNotes: cells
details: Homo sapiens
State just the number; it will be interpreted in µM.

See these solved cases before continuing.
{"molecularString": "C/C(=N\\O)N(C)CCN1CCc2nc(Nc3ncc(F)c(-c4cc(F)c5nc(C)n(C(C)C)c5c4)n3)ccc2C1", "readoutUnits": "µM", "IC50": 0.423}
{"molecularString": "Cc1nc2c(F)cc(-c3nc(Nc4ccc5c(n4)CCN(CCN(C)P(C)(C)=O)C5)ncc3F)cc2n1C(C)C", "readoutUnits": "µM", "IC50": 0.934}

Ask: Sample CCOP(=O)(OCC)N(C)CCN1CCc2nc(Nc3ncc(F)c(-c4cc(F)c5nc(C)n(C(C)C)c5c4)n3)ccc2C1 — what was its IC50?
Result: 1.06

----------
measurementNotes: in vitro
details: rhesus monkey, microsomes
recordedEndpoint: half-life at 1 h (min)
Write the number in min without appending the unit.

Ask: Looking for the measured half-life at 1 h of CCN1CCN(Cc2ccc(Nc3ncc(F)c(-c4cc(F)c5nc(C)n(C(C)C)c5c4)n3)nc2)CC1 , can you help?
Result: 3.96

----------
System: U-87 MG
measurementNotes: cells
details: Homo sapiens
recordedEndpoint: IC50 (nM)
Write it as a number; the unit nM goes unstated.

Ask: Tell me the measured IC50 of CCN1CCN(Cc2ccc(Nc3ncc(F)c(-c4cc(F)c5nc(C)n(C(C)C)c5c4)n3)nc2)CC1 , please.
Result: 706

----------
measurementNotes: in vitro
details: mouse, microsomes
recordedEndpoint: half-life at 1 h (min)
Entry rule: numbers only, all in min.

Ask: Query: half-life at 1 h; subject: CCN1CCN(Cc2ccc(Nc3ncc(F)c(-c4cc(F)c5nc(C)n(C(C)C)c5c4)n3)nc2)CC1
Result: 8.25

----------
measurementNotes: in vitro
details: rhesus monkey, microsomes
recordedEndpoint: microsomal CLint at 1 h (µL/min/mg)
Field format: number, assumed µL/min/mg, no unit text.

Ask: Which microsomal CLint at 1 h value is on record for CCN1CCN(Cc2ccc(Nc3ncc(F)c(-c4cc(F)c5nc(C)n(C(C)C)c5c4)n3)nc2)CC1 [ABEMACICLIB] ?
Result: 350
